tested on: HL-60; experiment: Antiproliferative activity against human HL60 cells after 24 hrs by MTT assay; format: functional, cell-based; conditions: HL-60, 24 h
property-label: IC50
Include the unit right after the number.

Exam item: // lookup IC50 | system=HL-60 | key= `Cl.Cl.NCCCn1c2c(c3ccc(N)cc3c1=O)C(=O)c1ccccc1-2`
Marked response: 800 nM

----------
tested on: HL-60; assay: Antiproliferative activity against human HL60 cells after 96 hrs by MTT assay; assay type: functional, cell-based; conditions: HL-60, 96 h
property-label: IC50 (nM)
Number in nM, nothing else.

Exam item: Quick one: IC50 of `Cl.Cl.NCCCn1c2c(c3ccc(N)cc3c1=O)C(=O)c1ccccc1-2` ?
Marked response: 86
